test system: A549; test: Cytotoxicity assay, SRB colorimetric assay; format: cell-based; conditions: Homo sapiens; A549; 48 hours exposure; total growth inhibition (cytostatic effect)
Assign IC (TGI) to each entry below.
Number in µM, nothing else.

query: Endpoint output: IC (TGI) of C/C(Cl)=C\C[C@@H](C/C=C\NC(=O)[C@@H](NC(=O)\C=C/C=C\C(C)=C\Cc1ccccc1)C(C)(C)C)O[Si](C)(C)C(C)(C)C [Compound 32] . Value?
result: 0.686

query: Endpoint output: IC (TGI) of C/C(Cl)=C\C[C@H](O)C/C=C\NC(=O)[C@@H](NC(=O)\C=C/C=C\C(C)=C\[C@H](C)c1ccccc1)C(C)(C)C [Compound 38] . Value?
result: 4.87

query: Endpoint output: IC (TGI) of C/C(Cl)=C\C[C@H](O)C/C=C\NC(=O)[C@@H](NC(=O)\C=C/C=C\C(C)=C\Cc1ccccc1)C(C)(C)C [Compound 33] . Value?
result: 3.41

query: Endpoint output: IC (TGI) of COc1cc(/C=C(C)/C=C\C=C/C(=O)N[C@H](C(=O)N/C=C\C[C@H](C/C=C(\C)Cl)O[Si](C)(C)C(C)(C)C)C(C)(C)C)ccc1O[Si](C)(C)C(C)(C)C [Compound 30] . Value?
result: 0.764

query: Endpoint output: IC (TGI) of C/C(Cl)=C\C[C@@H](C/C=C\NC(=O)[C@@H](NC(=O)\C=C/C=C\C(C)=C\Cc1ccccc1)C(C)(C)C)OC(N)=O [Compound 34] . Value?
result: 2.77

query: Endpoint output: IC (TGI) of C/C(Cl)=C\C[C@@H](C/C=C\NC(=O)[C@@H](NC(=O)\C=C/C=C\C(C)=C\[C@H](C)c1ccccc1)C(C)(C)C)O[Si](C)(C)C(C)(C)C [Compound 37] . Value?
result: 5.9
